The origin of these recorded values is the supplement of paper PMC9170038.

# reported apparent KD of MS2 coat protein; entries follow
- Test system: MS2 coat protein
- Method Notes: apparent KD of MS2 coat protein; higher = weaker reporter binding
- Conditions Used: Eterna round: R107; input ligand: none
Could you give me the number in µM? Just the number is fine.

// below: answered sequences
Sequence	apparent KD of MS2 coat protein, µM
GGGCCUAUCUGAAGGAGCGACAUGAGGAUCACCCAUGUCUCCCGUUAUGGGAGUUCUUUAGGUCAGGUAGGUCGCAGGUAGGGCC [#1 Exclusion - Arginine B Attempt #5 (Inspired by Omei)]	0.0147
UGUAUGUGAUCUGAUACCAGUCCAACUGGUAAAUCAUGAGGAUCACCCAUGGAAAAUUGGGACCCUUGGCAGCAGAUCGCAUACU	0.452
GGGCGAGUGGAGCGGCGUGCUCCGCUCCGUCGAGGACCGGUACGGCCGCCACUCGACAUGAGGAUCACCCAUGUGCGAGCUCGCG [#1 Exclusion - Tryptophan A Attempt #13 (HarryS)]	0.0176
AUACAUGAGGAUCACCCAUGUCAUUCAGAAGGAGCGUCAUUUUAGACAGGUAGGUCGCUGUUAUUGGUAUUAUACUUUAUGUUUA [JR_ExcArginiA_Sub024]	0.0229

Pending sequence:
Dear colleague, I am looking for the recorded apparent KD of MS2 coat protein of the following sequence: GGGAGAUGAAAAGAUUGAGCUAAAACAGAAGGAGCGUGAAUUAACACAGGUAGGUCGCUGACAACAUGAGGAUCACCCAUGUAUU [Same State Arginine A GF4]
0.0196
